Test: Plasma pharmacokinetics of lorlatinib at steady state (LC-MS/MS, non-compartmental analysis)
Format: in vivo, human
Conditions: human, in vivo, 115 mg/m2, Cycle 1 Day 1; patient N0773; Cohort B2; 115 mg/m2 per dose; Dose 75; read-out: Cmax
measurement-name: Cmax

What Cmax value was documented for this molecule, C[C@H]1Oc2cc(cnc2N)-c2c(nn(C)c2C#N)CN(C)C(=O)c2ccc(F)cc21 ?
1660 ng/mL

###

Assay: Plasma pharmacokinetics of lorlatinib at steady state (LC-MS/MS, non-compartmental analysis)
Assay type: in vivo, human
Details: human, plasma, oral, 60 mg/m2, Cycle 1 Day 1; Cohort A1; 60 mg/m2 per dose; individual patients
measurement-name: AUC(0-t)
Report the figure along with its unit, number first.

Quick one: AUC(0-t) for C[C@H]1Oc2cc(cnc2N)-c2c(nn(C)c2C#N)CN(C)C(=O)c2ccc(F)cc21 ?
3960 ng·h/mL

###

Experiment: Plasma pharmacokinetics of lorlatinib at steady state (LC-MS/MS, non-compartmental analysis)
Assay type: in vivo, human
Details: human, plasma, oral, 95 mg/m2, Cohort B2, 95 mg/m2 per dose, C1D15, Geometric Mean, N 2; read-out: Tmax
measurement-name: Tmax (h)
Answers are plain numbers, in h.

Any idea what Tmax was measured for C[C@H]1Oc2cc(cnc2N)-c2c(nn(C)c2C#N)CN(C)C(=O)c2ccc(F)cc21 ?
2.83

###

Assay: Plasma pharmacokinetics of lorlatinib at steady state (LC-MS/MS, non-compartmental analysis)
Format: in vivo, human
Conditions: human, plasma, oral, 100 mg, Cohort A2, 100 mg per dose, C1D15, Geometric Mean, N 5; read-out: AUC_TAU
measurement-name: AUC (ng·h/mL)
Numbers only, in ng·h/mL.

Field request: AUC | item: C[C@H]1Oc2cc(cnc2N)-c2c(nn(C)c2C#N)CN(C)C(=O)c2ccc(F)cc21
6790

###

Experiment: Plasma pharmacokinetics of lorlatinib at steady state (LC-MS/MS, non-compartmental analysis)
Format: in vivo, human
Conditions: Cycle 1 Day 1; Cohort A2; 100 mg per dose; individual patients; unit assumed
measurement-name: Tlag (h)
Give bare numbers, in h.

Requested read-out: Tlag. Entry: C[C@H]1Oc2cc(cnc2N)-c2c(nn(C)c2C#N)CN(C)C(=O)c2ccc(F)cc21
0

###

Test: Plasma pharmacokinetics of lorlatinib at steady state (LC-MS/MS, non-compartmental analysis)
Type: in vivo, human
Conditions: human, plasma, oral, 150 mg, steady state; Cohort A2; 150 mg QD; (CV); read-out: Cmax
measurement-name: Cmax
Lab note: write values as number then unit, every time.

What value of Cmax has been recorded for this entry: C[C@H]1Oc2cc(cnc2N)-c2c(nn(C)c2C#N)CN(C)C(=O)c2ccc(F)cc21
741 ng/mL

###

Assay: Plasma pharmacokinetics of lorlatinib at steady state (LC-MS/MS, non-compartmental analysis)
Type: in vivo, human
Details: Cycle 1 Day 15; Cohort A1; 115 mg/m2 per dose; individual patients
measurement-name: Tlast
Units required after the number.

Please give the measured Tlast for this compound: C[C@H]1Oc2cc(cnc2N)-c2c(nn(C)c2C#N)CN(C)C(=O)c2ccc(F)cc21 [Lorlatinib]
24 h

###

Test: Plasma pharmacokinetics of lorlatinib at steady state (LC-MS/MS, non-compartmental analysis)
Assay type: in vivo, human
Details: human, in vivo, 115 mg/m2, Cycle 1 Day 1, Cohort A1, 115 mg/m2 per dose; read-out: Tmax
measurement-name: Tmax (h)
Answers are plain numbers, in h.

Please report the recorded Tmax for C[C@H]1Oc2cc(cnc2N)-c2c(nn(C)c2C#N)CN(C)C(=O)c2ccc(F)cc21 .
1

###

Experiment: Plasma pharmacokinetics of lorlatinib at steady state (LC-MS/MS, non-compartmental analysis)
Format: in vivo, human
Conditions: human, plasma, oral, 150 mg, Cycle 1 Day 1; Cohort A2; 150 mg per dose; individual patients; read-out: Cmax
measurement-name: Cmax (ng/mL)
Answers are plain numbers, in ng/mL.

// query Cmax value for entry C[C@H]1Oc2cc(cnc2N)-c2c(nn(C)c2C#N)CN(C)C(=O)c2ccc(F)cc21 [Lorlatinib]
564

###

Assay: Plasma pharmacokinetics of lorlatinib at steady state (LC-MS/MS, non-compartmental analysis)
Type: in vivo, human
Settings: human, plasma, oral, 95 mg/m2, Cycle 1 Day 15, Cohort A1, 95 mg/m2 per dose; read-out: Tmax
measurement-name: Tmax
A complete answer gives the number followed by the unit.

Data request, read-out Tmax, for C[C@H]1Oc2cc(cnc2N)-c2c(nn(C)c2C#N)CN(C)C(=O)c2ccc(F)cc21 [Lorlatinib]
1 h

###

Experiment: Plasma pharmacokinetics of lorlatinib at steady state (LC-MS/MS, non-compartmental analysis)
Format: in vivo, human
Details: human, plasma, oral, 45 mg/m2, Cohort A1, 45 mg/m2 per dose, C1D15, Median, N 3; read-out: Cmax
measurement-name: Cmax (ng/mL)
Give bare numbers, in ng/mL.

State the recorded Cmax for this entry: C[C@H]1Oc2cc(cnc2N)-c2c(nn(C)c2C#N)CN(C)C(=O)c2ccc(F)cc21 [Lorlatinib]
287

###

Test: Plasma pharmacokinetics of lorlatinib at steady state (LC-MS/MS, non-compartmental analysis)
Assay type: in vivo, human
Details: human, plasma, oral, 150 mg, Cohort A2, 150 mg per dose, C1D15, Geometric Mean, N 10; read-out: Cmax
measurement-name: Cmax (ng/mL)
Numbers only, in ng/mL.

Recorded Cmax for C[C@H]1Oc2cc(cnc2N)-c2c(nn(C)c2C#N)CN(C)C(=O)c2ccc(F)cc21 , please?
741

###

Experiment: Plasma pharmacokinetics of lorlatinib at steady state (LC-MS/MS, non-compartmental analysis)
Format: in vivo, human
Conditions: human, in vivo, 115 mg/m2, Cohort A1, 115 mg/m2 per dose, C1D15, Geometric Mean, N 6; read-out: AUC_TAU
measurement-name: AUC

Requested read-out: AUC. Entry: C[C@H]1Oc2cc(cnc2N)-c2c(nn(C)c2C#N)CN(C)C(=O)c2ccc(F)cc21
8640 ng·h/mL

###

Assay: Plasma pharmacokinetics of lorlatinib at steady state (LC-MS/MS, non-compartmental analysis)
Type: in vivo, human
Conditions: human, plasma, oral, 60 mg/m2, Cycle 1 Day 15; Cohort A1; 60 mg/m2 per dose; individual patients; read-out: MRTINF_obs
Source text: Lorlatinib was isolated from human plasma by a liquid-iquid extraction procedure. […] A linear-log trapezoidal method was used [NT] A best-fit method was used to estimate terminal elimination and to extrapolate any plasma concentration versus time profiles to compute [NT].
measurement-name: MRT inf (h)
Numbers only, in h.

What does the record list as MRT inf for C[C@H]1Oc2cc(cnc2N)-c2c(nn(C)c2C#N)CN(C)C(=O)c2ccc(F)cc21 [Lorlatinib] ?
13

###

Experiment: Plasma pharmacokinetics of lorlatinib at steady state (LC-MS/MS, non-compartmental analysis)
Format: in vivo, human
Details: human, plasma, oral, 60 mg/m2, Cycle 1 Day 1; Cohort A1; 60 mg/m2 per dose; individual patients; read-out: Cmax
measurement-name: Cmax (ng/mL)
Answers are plain numbers, in ng/mL.

Any idea what its Cmax is? The molecule is C[C@H]1Oc2cc(cnc2N)-c2c(nn(C)c2C#N)CN(C)C(=O)c2ccc(F)cc21
761

###

Assay: Plasma pharmacokinetics of lorlatinib at steady state (LC-MS/MS, non-compartmental analysis)
Assay type: in vivo, human
Details: human, in vivo, 115 mg/m2, Cycle 1 Day 1; Cohort A1; 115 mg/m2 per dose; individual patients; read-out: Cmax
measurement-name: Cmax (ng/mL)
One number for each entry, in ng/mL.

Item under review: C[C@H]1Oc2cc(cnc2N)-c2c(nn(C)c2C#N)CN(C)C(=O)c2ccc(F)cc21 . Reported Cmax?
1440

###

Assay: Plasma pharmacokinetics of lorlatinib at steady state (LC-MS/MS, non-compartmental analysis)
Assay type: in vivo, human
Conditions: human, plasma, oral, 75 mg/m2, Cycle 1 Day 15; Cohort A1; 75 mg/m2 per dose; individual patients; read-out: AUCINF_pred
measurement-name: AUC(0-inf)
Note: state the figure and append the unit.

// AUC(0-inf) lookup, key: C[C@H]1Oc2cc(cnc2N)-c2c(nn(C)c2C#N)CN(C)C(=O)c2ccc(F)cc21
4490 ng·h/mL

###

Experiment: Plasma pharmacokinetics of lorlatinib at steady state (LC-MS/MS, non-compartmental analysis)
Assay type: in vivo, human
Conditions: human, plasma, oral, 150 mg per dose, Cycle 1 Day 1, Cohort A2, 150 mg per dose; read-out: AUCall
measurement-name: AUC (ng·h/mL)
One number for each entry, in ng·h/mL.

// returns reported AUC for input C[C@H]1Oc2cc(cnc2N)-c2c(nn(C)c2C#N)CN(C)C(=O)c2ccc(F)cc21 [Lorlatinib]
8990

###

Assay: Plasma pharmacokinetics of lorlatinib at steady state (LC-MS/MS, non-compartmental analysis)
Format: in vivo, human
Settings: human, in vivo, 115 mg/m2, steady state; Cohort A1; 115 mg/m^2 QD; read-out: Tmax
Description: Lorlatinib was isolated from human plasma by a liquid-iquid extraction procedure. […] A linear-log trapezoidal method was used [NT] A best-fit method was used to estimate terminal elimination and to extrapolate any plasma concentration versus time profiles to compute [NT].
measurement-name: Tmax
Number first, unit second.

Fill in: Tmax of C[C@H]1Oc2cc(cnc2N)-c2c(nn(C)c2C#N)CN(C)C(=O)c2ccc(F)cc21 [Lorlatinib] is ___
1.5 h
